- Tested on: Mus musculus
- assay-notes: In vivo antimalarial activity against Plasmodium berghei NK 65 in mice (Mus musculus) at 20 mg/kg/day
- Type: functional
If the reported Growth inhibition equals or exceeds 20%, assign true (1). If not, assign false (0).

# input Dear colleague, could you confirm whether c1ccc([C@H]2OO[C@H](c3ccccc3)OO2)cc1 has Growth inhibition at or above 20%?
# output false (0)

# input Dear colleague, could you confirm whether Fc1ccc(C2OOC(c3ccc(F)cc3)OO2)cc1 (centres undefined) has Growth inhibition at or above 20%?
# output true (1)

# input Dear colleague, could you confirm whether CCC(CC)C1OOC2CCCC(c3ccccc3)(OO1)O2 (centres undefined) has Growth inhibition at or above 20%?
# output false (0)

# input Dear colleague, could you confirm whether O=C(CCC[C@H]1OO[C@H](CCCC(=O)c2ccc(F)cc2)OO1)c1ccc(F)cc1 has Growth inhibition at or above 20%?
# output false (0)

# input Dear colleague, could you confirm whether C1CCC([C@H]2OO[C@H](C3CCCCC3)OO2)CC1 has Growth inhibition at or above 20%?
# output true (1)

# input Dear colleague, could you confirm whether c1ccc(C23CCCC(OOC(C4CCCCC4)OO2)O3)cc1 (centres undefined) has Growth inhibition at or above 20%?
# output false (0)

# input Dear colleague, could you confirm whether C[C@@H]1CC[C@H]2[C@@H](C)C(=O)O[C@@H]3O[C@@]4(C)CC[C@@H]1[C@]32OO4 has Growth inhibition at or above 20%?
# output true (1)

# input Dear colleague, could you confirm whether O=C(CCCC1OOC2CCCC(c3ccc(F)cc3)(OO1)O2)c1ccc(F)cc1 (centres undefined) has Growth inhibition at or above 20%?
# output false (0)

# input Dear colleague, could you confirm whether O=C(CCC[C@H]1OO[C@H](CCCC(=O)c2ccccc2)OO1)c1ccccc1 has Growth inhibition at or above 20%?
# output true (1)

The measured values listed here are drawn from ChEMBL document CHEMBL1132298.
